Sourced from the supplement of paper PMC10307832

# System: NCI-H2347
# Assay summary: relative viability (nuclei count vs DMSO), 5 days (fraction); higher = more cells survive
# Experimental setup: first compound 0.1265 µM
Reported metric: relative viability
Answer with a bare number; do not write a unit.

Compound	Assay target	relative viability
C[C@@H]1CN(CC(=O)Nc2ccc3c(c2)Cc2cccc(-c4cc(=O)cc(N5CCOCC5)o4)c2S3)C[C@H](C)O1 + CC(=O)Nc1cccc(-n2c(=O)n(C3CC3)c(=O)c3c(Nc4ccc(I)cc4F)n(C)c(=O)c(C)c32)c1 [Trametinib] (partner 0.02 µM)	NCI-H2347	0.331

Give relative viability (NCI-H2347) of the following compound: Clc1ccc(Nc2nnc(Cc3ccncc3)c3ccccc23)cc1 [Vatalanib] + NC(=O)Nc1cc(-c2cccc(F)c2)sc1C(=O)N[C@H]1CCCNC1 [AZD7762] (partner 0.2 µM) 0.932

Give relative viability (NCI-H2347) of the following compound: C[C@@H]1CN(CC(=O)Nc2ccc3c(c2)Cc2cccc(-c4cc(=O)cc(N5CCOCC5)o4)c2S3)C[C@H](C)O1 + Cc1nc(NC(=O)N2CCC[C@H]2C(N)=O)sc1-c1ccnc(C(C)(C)C(F)(F)F)c1 [Alpelisib] (partner 2 µM) 1.09

// fetch NCI-H2347 relative viability for COc1cc(N2CCC(C(N)=O)CC2)ccc1Nc1nc(N)c(Cl)c(Nc2ccccc2S(=O)(=O)C(C)C)n1 [HG-5-88-01] + Nc1ncn([C@H]2C[C@H](O)[C@@H](CO)O2)c(=O)n1 [Decitabine] (partner 2 µM) 0.637

###

# System: HCC-366
# Assay summary: relative viability (nuclei count vs DMSO), 5 days (fraction); higher = more cells survive
# Experimental setup: first compound 1.265 µM
The entries below come with measured relative viability values attached.

Solved cases (4 shown):
Compound	Reported value
COc1cc(N2CCC(C(N)=O)CC2)ccc1Nc1nc(N)c(Cl)c(Nc2ccccc2S(=O)(=O)C(C)C)n1 [HG-5-88-01] + Cc1nc(Nc2ncc(C(=O)Nc3c(C)cccc3Cl)s2)cc(N2CCN(CCO)CC2)n1 [Dasatinib] (partner 0.075 µM)	0.691
COc1cc(N2CCC(C(N)=O)CC2)ccc1Nc1nc(N)c(Cl)c(Nc2ccccc2S(=O)(=O)C(C)C)n1 [HG-5-88-01] + COc1cc2c(Oc3ccc(NC(=O)C4(C(=O)Nc5ccc(F)cc5)CC4)cc3F)ccnc2cc1OCCCN1CCOCC1 [Foretinib] (partner 0.25 µM)	0.856
COc1cc(N2CCC(C(N)=O)CC2)ccc1Nc1nc(N)c(Cl)c(Nc2ccccc2S(=O)(=O)C(C)C)n1 [HG-5-88-01] + C[C@]1(O)C[C@@H](c2nc(-c3ccc4ccc(-c5ccccc5)nc4c3)c3c(N)nccn32)C1 [Linsitinib] (partner 1 µM)	0.608
Clc1ccc(Nc2nnc(Cc3ccncc3)c3ccccc23)cc1 [Vatalanib] + COc1cc2c(Oc3ccc(NC(=O)C4(C(=O)Nc5ccc(F)cc5)CC4)cc3F)ccnc2cc1OCCCN1CCOCC1 [Foretinib] (partner 0.25 µM)	0.885

Then there is this compound:
// lookup relative viability for Clc1ccc(Nc2nnc(Cc3ccncc3)c3ccccc23)cc1 [Vatalanib] + N=C(N)NC(=N)NCCc1ccccc1 [Phenformin] (partner 250 µM) 0.575

###

# Test system: COR-L 105
# Assay summary: relative viability (nuclei count vs DMSO), 5 days (fraction); higher = more cells survive
# Experimental setup: first compound 0.1265 µM
# key: entry, value: relative viability
Note: the reply should be a number with no unit written.

Would you kindly share the measured relative viability for C[C@@H]1CN(CC(=O)Nc2ccc3c(c2)Cc2cccc(-c4cc(=O)cc(N5CCOCC5)o4)c2S3)C[C@H](C)O1 + CC(=O)Nc1cccc(-n2c(=O)n(C3CC3)c(=O)c3c(Nc4ccc(I)cc4F)n(C)c(=O)c(C)c32)c1 [Trametinib] (partner 0.02 µM) ? 0.412

Which relative viability value belongs to Clc1ccc(Nc2nnc(Cc3ccncc3)c3ccccc23)cc1 [Vatalanib] + COc1cc2c(Oc3ccc(NC(=O)C4(C(=O)Nc5ccc(F)cc5)CC4)cc3F)ccnc2cc1OCCCN1CCOCC1 [Foretinib] (partner 0.25 µM) ? 1.23

What value of relative viability has been reported for the following molecule? C[C@@H]1CN(CC(=O)Nc2ccc3c(c2)Cc2cccc(-c4cc(=O)cc(N5CCOCC5)o4)c2S3)C[C@H](C)O1 + COc1cccc2cc(-c3nc([C@H]4CC[C@H](C(=O)O)CC4)n4ncnc(N)c34)[nH]c12 [OSI-027] (partner 0.5 µM) 0.828

Please look up its relative viability: Clc1ccc(Nc2nnc(Cc3ccncc3)c3ccccc23)cc1 [Vatalanib] + Cc1nc(Nc2ncc(C(=O)Nc3c(C)cccc3Cl)s2)cc(N2CCN(CCO)CC2)n1 [Dasatinib] (partner 0.075 µM) 0.32

For Clc1ccc(Nc2nnc(Cc3ccncc3)c3ccccc23)cc1 [Vatalanib] + CS(=O)(=O)CCNCc1ccc(-c2ccc3ncnc(Nc4ccc(OCc5cccc(F)c5)c(Cl)c4)c3c2)o1 [Lapatinib] (partner 2 µM) , what is its reported relative viability? 0.301
